Field: growth inhibition. Provide a value for each of the molecules that follow.
# protocol-text: NCI Yeast Anticancer Drug Screen. Data for the mec2-1 strain (AID 157)
# condition-label: S. cerevisiae mec2-1 strain, at 50.0 µM, stronger effect = higher value
This is part of a sample that, as a whole, favours compounds with a hit. Of some 79,000 tested, about 15% had one in any assay.
Give bare numbers, in %.

molecule	units-label	growth inhibition
Cc1ccccc1C(=O)c1cc(O)ccc1O	%	-10.1

Provide growth inhibition values for the following items, in order.
1. c1ccc(SC2(Sc3ccccc3)CCCC2)cc1
2. COc1cc(-c2cc(O)c(-c3ccc4ccccc4n3)c(=O)[nH]2)cc(OC)c1OC
3. O=C(CO)c1ccccc1
4. COc1ccc(NS(=O)c2cccc(C)c2)cc1 (stereo not drawn)
5. CCOC(=O)c1ccccc1Nc1c(C(=O)OCC)cnc2cc3c(cc12)OCO3
6. Nc1nc(Cl)cc(Nc2ccc3c(c2)CCC3)n1
7. CCOC(=O)C(=O)C1CCCC1=O (stereo not drawn)
8. CC(=O)OCC12CCC(O1)C1C(=O)OC(=O)C12 (stereo not drawn)

[-22.1, 14.6, 10.3, -11.1, 3.95, 6.8, -6.65, -2.25]

Provide growth inhibition values for the following items, in order.
1. Cc1cccc(OS(=O)(=O)c2ccccc2)c1
2. O=S(=O)(O)c1ccc(O)c2ncccc12
3. CC(C1CCCC1=O)C1CCCC1=O (stereo not drawn)
4. COC(=O)C(=O)C(C#N)c1c(Cl)cccc1Cl (stereo not drawn)

1: 16.2; 2: 16.4; 3: -17.8; 4: 39.1

###

Field: growth inhibition. Provide a value for each of the compounds that follow.
# protocol-text: NCI Yeast Anticancer Drug Screen. Data for the cln2 rad14 strain (AID 165);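 note: 0% = growth equal to vehicle treated cultures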
# condition-label: S. cerevisiae cln2 rad14 strain, at 50.0 µM, stronger effect = higher value
This is part of a sample that, as a whole, favours compounds with a hit. Of some 79,000 tested, about 15% had one in any assay.
Answers are plain numbers, in %.

compound	observed-value
CC(=O)OCCS(=O)Cc1ccccc1 (configuration not stated)	-41.4
C=CCn1c(NCCN(CC)CC)nc2ccc(Cl)cc2c1=O	0.85
CCCCCCCCC/C=C\C(=O)O	-22.9
C=CCOCn1ccc(N)nc1=O	7
CCN1C(=O)/C(=C\c2ccccc2)N=C1C	-58

Provide growth inhibition values for the following items, in order.
1. O=C1c2ccccc2C(=O)c2c1ccc1c2N=C(c2ccc(F)cc2)CC(c2ccc(Cl)c(Cl)c2)N1 (configuration not stated)
2. CC1=Nc2c(C#N)ncn2N=C(C)C1

1: -14.7; 2: 41.4

###

# protocol-text: NCI Yeast Anticancer Drug Screen. Data for the sgs1 mgt1 strain (AID 161);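 note: 0% = growth of cultures given vehicle only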
# condition-label: S. cerevisiae sgs1 mgt1 strain, at 50.0 µM, stronger effect = higher value
# Method: Growth inhibition of yeast strains with defined genetic alterations is measured as a screen for potential anti-cancer activity. Selected strains with alterations in DNA damage repair or cell cycle control were exposed to compounds and growth inhibition was measured relative to vehicle treated controls. The strain used in this assay is sgs1 mgt1
This is part of a sample that, as a whole, favours compounds with a hit. Of some 79,000 tested, about 15% had one in any assay.
Field: growth inhibition. Provide a value for each of the compounds that follow.
Answers are plain numbers, in %.

Known growth inhibition results, listed for orientation:
compound	growth inhibition, %
CN(C)S(=O)(=O)C=C(c1ccccc1)c1ccccc1	17.4
CSc1ncc2c(C#N)c3ccccn3c(=O)c2n1	11.2
CCCCCCCCCCC(CCCCCCCCCC)C1CCCC1	0.7
CCN(CC)c1ccc(N=C2C=CC(=O)C(C)=C2)c(C)c1	-0.9
COC(=O)Nc1nc2ccc(SC)cc2c(=O)[nH]1	3.2

Provide growth inhibition values for the following items, in order.
1. O=C(NC12OC3CC(CC(C3)O1)O2)NC12OC3CC(CC(C3)O1)O2
2. COc1ccc2c(c1)C1(C)CCCC(C)(C=O)C1CC2 (stereo unspecified)
3. c1ccc(C2OCCO2)c(OCCOc2cc(OCCOc3ccccc3C3OCCO3)c(OCCOc3ccccc3C3OCCO3)cc2OCCOc2ccccc2C2OCCO2)c1
4. COc1ccc2[nH]c3c4c(cc(-c5ccccc5)c3c2c1)C(=O)N(c1ccccc1)C4=O
5. COc1c(C)c(C)c(OC(C)=O)c(C)c1COC(C)=O
6. O=c1[nH]nc(-c2ccc(Cl)cc2)[nH]1

1: 14.2; 2: -3.65; 3: -9.9; 4: -16.6; 5: 33.2; 6: -3.85

Provide growth inhibition values for the following items, in order.
1. O=C(O)c1n[nH]c2ccccc12
2. OCC1NCCC(O)C1OC1OC(CO)C(O)C(O)C1O (stereo unspecified)
3. Cn1c(=O)c2[nH]c(SCCN3CCOCC3)nc2n(C)c1=S
4. CCOc1cccc(N(CC)CC)c1

[3.75, -0.65, -25.6, -20]

Provide growth inhibition values for the following items, in order.
1. N#CC1(C#N)C2(c3ccccc3)OC(c3ccccc3)(c3cc4ccccc4cc32)C1(C#N)C#N
2. COc1cc([N+](=O)[O-])c(OC)cc1Nc1ccccc1C(=O)O
3. CCCCOC(=O)CCCCCCC/C=C/C1C=CC(CCCC)C(C#N)C1C#N (stereo unspecified)
4. NCCN1C(=O)c2ccccc2C1(O)c1ccc(Cl)cc1 (stereo unspecified)
5. CN(C)c1ccc(/C=C/C(=O)/C=C/c2ccc(N(C)C)cc2)cc1
6. C=CC1(C)C(C)=C(C)C(C)=C1C

1. -4.1
2. 22.1
3. -25.1
4. -7
5. -13.8
6. -13.7

###

# protocol-text: NCI Yeast Anticancer Drug Screen. Data for the cln2 rad14 strain (AID 165);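 note: 0% = growth equal to vehicle treated cultures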
# condition-label: S. cerevisiae cln2 rad14 strain, at 50.0 µM, stronger effect = higher value
Compounds without any hit were thinned out: in the full panel of roughly 79,000, 15% have a hit.
readout-label: growth inhibition (%)
Give bare numbers, in %.

molecule	readout-label	observed-value
O=C(O)CCCCCCCCCC(=O)O	growth inhibition	-24.9
CCCCC(=O)N/N=C/c1ccccc1OCC	growth inhibition	-3.3
CCOC(=O)c1cc(C)nc2ccc(Br)cc12	growth inhibition	-5.85

Provide growth inhibition values for the following items, in order.
1. COC(=O)C(/C(=N/N)C(=O)Nc1cccc(O)c1)c1nc2ccccc2[nH]c1=O (stereo not given)
2. COc1ccc(Cl)cc1NC(=O)c1cccc(Cl)c1
3. O=C(Nc1cccc(O)c1)c1ccc([N+](=O)[O-])cc1
4. CCOC(=O)Cn1c(=O)[nH]c(=O)c2[nH]cnc21
5. O=C(C(c1ccccc1)C(F)(F)F)N1CCCC1 (stereo not given)
6. CC1=C(C)CC2C(=O)C=CC(=O)C2C1 (stereo not given)
7. O=C(Oc1ccc2ccccc2c1)c1ccccc1

-15.2
10.9
-15.3
9.35
-13.3
4.65
21.9

###

# protocol-text: NCI Yeast Anticancer Drug Screen. Data for the cln2 rad14 strain (AID 165);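 note: 0% = growth equal to vehicle treated cultures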
# condition-label: S. cerevisiae cln2 rad14 strain, at 50.0 µM
# Protocol: Growth inhibition of yeast strains with defined genetic alterations is measured as a screen for potential anti-cancer activity. Selected strains with alterations in DNA damage repair or cell cycle control were exposed to compounds and growth inhibition was measured relative to vehicle treated controls. The strain used in this assay is cln2 rad14
This is part of a sample that, as a whole, favours compounds with a hit. Of some 79,000 tested, about 15% had one in any assay. Calls of active or inactive are those of the source. Cut-off read from the data, not from the text of the source: active = growth inhibition above about 70%; inactive = the rest.
Can you answer with just one of these options? True for active, False for inactive

molecule	label-class
CN(C)CCC(C(=O)NCc1ccccc1)C(=O)NCc1ccccc1	False
CCCCCCC1CCC(O)CC1 (stereo unspecified)	False
Cc1cc(Br)cc(C)c1NC(=O)C(=O)CC(=O)c1sc(-n2nc(-c3ccccc3)cc2-c2ccccc2)nc1C	False

For this molecule, state the assay outcome: CC1OC(OC2C(OC3C(OC4CCC5(C)C(CCC6(C)C5CC=C5C7CC(C)(C)CCC7(C(=O)O)CCC56C)C4(C)C)OCC(O)C3O)OC(CO)C(O)C2O)C(O)C(O)C1O (stereo unspecified)
True

For this molecule, state the assay outcome: C=CCNC(=S)NNC(=S)NCC=C
False

For this molecule, state the assay outcome: C/C(=N\NC(=O)CC(=O)N(C(=O)c1ccccc1Cl)c1ccc(C)cc1)c1ccc(Cl)cc1
False

For this molecule, state the assay outcome: CCOC(=O)/C=C/C(=O)O.[Cu+2]
False

For this molecule, state the assay outcome: CCN(CC)C(=S)SCCCS(=O)(=O)O
False

For this molecule, state the assay outcome: c1ccc2c(c1)CCC2
False

For this molecule, state the assay outcome: COc1ccc(/C=C2\CCN=C2c2ccccc2)cc1OC
False

For this molecule, state the assay outcome: COc1ccc(C(=O)c2ccccc2C)cc1OC
False

###

# protocol-text: NCI Yeast Anticancer Drug Screen. Data for the mlh1 rad18 strain (AID 175)
# condition-label: S. cerevisiae mlh1 rad18 strain growth inhibition; at 50.0 µM; stronger effect = higher value
About 79,000 compounds went through this panel and 15% of them were active in at least one assay; those are over-represented in the sample as a whole.
readout-label: growth inhibition (%)
One number for each entry, in %.

Known growth inhibition results, listed for orientation:
molecule	units-label	observed-value
CC(=O)OC1CCC2(C)C(CCC3(C)C2CCC2C4C5OC(=O)C4(CCC5(C)C)CCC23C)C1(C)C (centres undefined)	%	4.6
CC[N+](C)(CC)Cc1ccccc1[N+](=O)[O-]	%	-28.6
CC(O)CSCC(C)O (centres undefined)	%	3.05
CC(=O)c1ccc2ccc3ccccc3c2c1	%	11.8

Provide growth inhibition values for the following items, in order.
1. CCOc1ccc(CO)cc1
2. S=C1SCCCN1c1ccccc1

-38.8
-20

Provide growth inhibition values for the following items, in order.
1. COc1cc(C(c2cc3c(cc2O)OCO3)N2CCCC2)cc(OC)c1OC (centres undefined)
2. O/N=C1\CCc2nonc2\C1=N/Nc1ccccc1
3. Cc1ccc(Cl)c(NC(=O)COc2ccc(Cl)cc2)c1
4. O=C(CCl)N1C(=O)NC(c2ccc(Cl)cc2)(c2ccc(Cl)cc2)C1=O
5. Cc1ccccc1C1OC2=C(Nc3ccc([N+](=O)[O-])cc3N2)C1=O (centres undefined)
6. CSc1c(S(C)=O)[nH]c2cc(Br)cc(Br)c12 (centres undefined)

[-7.85, -1.9, 26.4, -3.9, 45.6, 85.2]

Provide growth inhibition values for the following items, in order.
1. Cc1cc([N+](=O)[O-])ccc1NC(=O)C(=O)C(C(=O)c1ccccc1-c1ccccc1)C1OC(=O)c2ccccc21 (centres undefined)
2. COc1ccccc1C1CC(c2ccccc2)=Nc2ccccc2S1 (centres undefined)
3. CC1CCC2(C)CCC3(C)C(=CCC4C5(C)CCC(O)C(C)(C)C5CCC43C)C2C1C (centres undefined) (tested in a mixture with another compound)
4. CCCCCCN(CCCCCC)C(=S)N/N=C(\C)c1ccccn1
5. Cc1ccc([N+](=O)[O-])cc1NC(=O)N(C)Cc1ccc(Cl)cc1
6. O=C1CC2(CCCCC2)C(=O)N1c1cc([N+](=O)[O-])ccn1
7. CCN1C(=O)c2cc(=O)[nH]c(O)c2C1C (centres undefined)

1: 41.5; 2: -1.05; 3: 17.1; 4: 82.2; 5: -8.9; 6: 19.8; 7: 10.9

Provide growth inhibition values for the following items, in order.
1. O=Cc1cc(N=Nc2ccc(S(=O)(=O)O)cc2)ccc1O
2. O=c1[nH]cc(F)c(=O)n1-c1ccco1
3. O=C(O)c1ccc([N+](=O)[O-])c(P(=O)(O)O)c1
4. CCOc1ncc(C(O)c2ccc(F)cc2)c(OCC)n1 (centres undefined)
5. CCOC(=O)C1(N)CC1

3.6
34.9
-3.5
0.3
17.2
